Here's a batch of compounds along with measured pKi for Cathepsin S (Homo sapiens).
pKi: −log10 of the molar value.
Assay Metric: pKi

C[C@@H](OCc1ccccc1)[C@@H](C#N)NC(=O)[C@H](Cc1cccc(Cl)c1)NC(=O)c1cccc(Br)c1	7.80

[a] C[C@@H](OCc1ccccc1)[C@@H](C#N)NC(=O)[C@H](Cc1cccc(Cl)c1)NC(=O)c1cccc(-c2cccnc2)c1
[b] C[C@@H](OCc1ccccc1)[C@@H](C#N)NC(=O)[C@H](Cc1cccc(Cl)c1)NC(=O)c1ccc(Br)cc1
[c] C[C@@H](OCc1ccccc1)[C@@H](C#N)NC(=O)[C@H](Cc1cccc(Cl)c1)NC(=O)c1cccc(-c2ccccc2)c1
Sequence the entries by pKi, beginning with the highest number. Your reply should list the labels following the order given in the request.
a, c, b
(a: 7.90, c: 7.30, b: 6.90)
